Attribution: the supplement of paper PMC5908809

Test system: normal primary NK cells, pool 2 (3 donors) (IL-2 2.5 ng/mL)
Protocol Description: percent inhibition of viability; higher = more inhibition
Test Settings: 72 h; 100 nM
Measurement Type: percent inhibition of viability (%)
# value in %; strip the unit string

Value lookup for percent inhibition of viability; key = COc1ccccc1S(=O)(=O)Nc1ccc2c(c1)CN(C)C(=O)N2 [PFI-1] (max concentration tested 10000 nM)
-1.83

Quick one: percent inhibition of viability for CN[C@@H]1C[C@H]2O[C@@](C)([C@@H]1OC)n1c3ccccc3c3c4c(c5c6ccccc6n2c5c31)C(=O)N[C@H]4O [UCN-01] (max concentration tested 10000 nM) ?
58.8

Return reported percent inhibition of viability; argument: CC(O)(CS(=O)(=O)c1ccc(F)cc1)C(=O)Nc1ccc(C#N)c(C(F)(F)F)c1 (stereo not drawn) [Bicalutamide] (max concentration tested 10000 nM)
-0.86

====

System: KAI3 (IL-2 2.5 ng/mL)
Protocol Description: drug sensitivity score (DSS) (DSS units); higher = more sensitive; extreme values may be limits of the assay
Test Settings: 72 h
Provide the reported drug sensitivity score of each item.
Just the number.

Bench note: what drug sensitivity score did Nc1ncnc2c1c(COc1cccc(Cl)c1)nn2C1CCOCC1 (max concentration tested 10000 nM) show?
0

For the molecule Cc1ccc(NC(=O)c2ccc(CN3CCN(C)CC3)cc2)cc1Nc1nccc(-c2cccnc2)n1 [Imatinib] (max concentration tested 10000 nM) , what drug sensitivity score is on record?
4.02

Could you tell me which drug sensitivity score is on file for CC(=O)[C@]1(O)Cc2c(O)c3c(c(O)c2[C@@H](O[C@H]2C[C@H](N)[C@H](O)[C@H](C)O2)C1)C(=O)c1ccccc1C3=O [Idarubicin] (max concentration tested 1000 nM) ?
28.5

Please look up its drug sensitivity score: O=C(NOC[C@H](O)CO)c1ccc(F)c(F)c1Nc1ccc(I)cc1F (max concentration tested 1000 nM)
3.26

====

Test system: IMC-1 (IL-2 20 ng/mL)
Protocol Description: percent inhibition of viability; higher = more inhibition
Test Settings: 72 h; 100 nM
Please respond with reported percent inhibition of viability for every item in the list.
Kindly format the answer as number then unit.

I am curious: what percent inhibition of viability value has been reported for C[C@@H]1CN(Cc2ccc(F)cc2)[C@@H](C)CN1C(=O)c1cc2c(C(=O)C(=O)N(C)C)cn(C)c2cc1Cl [Talmapimod] (max concentration tested 10000 nM) ?
-5.16%

May I ask what percent inhibition of viability has been recorded for Cc1ncc(-c2ccnc(Nc3ccc(S(C)(=O)=O)cc3)n2)n1C(C)C [AZD-5438] (max concentration tested 10000 nM) ?
6.12%

Given O=C(O)c1ccc2c(c1)nc(Nc1cccc(Cl)c1)c1ccncc12 [Silmitasertib] (max concentration tested 10000 nM) , state its recorded percent inhibition of viability.
5.81%

State the recorded percent inhibition of viability for this entry: Cc1nc(Nc2ncc(C(=O)Nc3c(C)cccc3Cl)s2)cc(N2CCN(CCO)CC2)n1 [Dasatinib] (max concentration tested 1000 nM)
-6.36%

Which percent inhibition of viability value belongs to C[C@]12C=CC(=O)C=C1CC[C@@H]1[C@@H]2C(=O)C[C@@]2(C)[C@H]1CC[C@]2(O)C(=O)CO [Prednisone] (max concentration tested 10000 nM) ?
3.06%

What does the record list as percent inhibition of viability for C[C@@H](Oc1cc(-c2cnn(C3CCNCC3)c2)cnc1N)c1c(Cl)ccc(F)c1Cl [Crizotinib] (max concentration tested 1000 nM) ?
5.13%

====

Exercise: state measured percent inhibition of viability for each of the compounds provided.
Tested on: normal primary NK cells, pool 1 (3 donors) (IL-2 2.5 ng/mL)
Protocol Description: percent inhibition of viability; higher = more inhibition
Test Settings: 72 h; 0.1 nM
Give the number; % is assumed, so skip it.

Any idea what its percent inhibition of viability is? The compound is COc1cc2c(Oc3ccc(NC(=O)C4(C(=O)Nc5ccc(F)cc5)CC4)cc3F)ccnc2cc1OCCCN1CCOCC1 [Foretinib] (max concentration tested 1000 nM)
3.18

Please report the recorded percent inhibition of viability for C[C@@H](Oc1cc(-c2cnn(C3CCNCC3)c2)cnc1N)c1c(Cl)ccc(F)c1Cl [Crizotinib] (max concentration tested 1000 nM) .
-4.24

Which value of percent inhibition of viability has been reported for CC(C)n1nc(-c2ccc3oc(N)nc3c2)c2c(N)ncnc21 [INK128] (max concentration tested 1000 nM) in the records?
-6.36

What value of measured percent inhibition of viability is listed for CO[C@H]1/C=C\C=C(/C)C(=O)NC2=CC(=O)C(NCCN(C)C)=C(C[C@@H](C)C[C@H](OC)[C@H](O)[C@@H](C)/C=C(\C)[C@@H]1OC(N)=O)C2=O [Alvespimycin] (max concentration tested 1000 nM) ?
9.22

====

What percent inhibition of viability was measured for each of the following?
System: normal primary NK cells, pool 1 (3 donors) (IL-2 2.5 ng/mL)
Protocol Description: percent inhibition of viability; higher = more inhibition
Test Settings: 72 h; 1 nM
Reply numerically in %, unit not repeated.

# percent inhibition of viability lookup, item COc1cc2c(Oc3ccc(NC(=O)C4(C(=O)Nc5ccc(F)cc5)CC4)cc3F)ccnc2cc1OCCCN1CCOCC1 [Foretinib] (max concentration tested 1000 nM)
-0.67

I have this compound here, CN(C[C@@H]1COCCO1)S(=O)(=O)Nc1ccc2ccc3ncc(-c4cnn(C)c4)cc3c(=O)c2c1 [MK-2461] (max concentration tested 10000 nM) , and I need its recorded percent inhibition of viability.
-3.44

percent inhibition of viability lookup needed for CNC(=O)c1ccc(C)c(-n2c(C)cc(OCc3ccc(F)cc3F)c(Br)c2=O)c1 (max concentration tested 1000 nM) , thanks.
0.08

====

Tested on: KAI3 (IL-2 2.5 ng/mL)
Protocol Description: percent inhibition of viability; higher = more inhibition
Test Settings: 72 h; 1 nM
Answer each item with its documented percent inhibition of viability.
Please give a number only; it is taken to be in %.

Which percent inhibition of viability value belongs to CC(C)C[C@H](NC(=O)[C@H](CCc1ccccc1)NC(=O)CN1CCOCC1)C(=O)N[C@@H](Cc1ccccc1)C(=O)N[C@@H](CC(C)C)C(=O)[C@@]1(C)CO1 [Carfilzomib] (max concentration tested 1000 nM) ?
28.8

What measured percent inhibition of viability goes with CCCCCOC(=O)Nc1nc(=O)n([C@@H]2O[C@H](C)[C@@H](O)[C@H]2O)cc1F [Capecitabine] (max concentration tested 10000 nM) ?
1.53

// percent inhibition of viability lookup, key: COc1ccc(-c2cc3c(C)nc(N)nc3n([C@H]3CC[C@H](OCCO)CC3)c2=O)cn1 (max concentration tested 10000 nM)
1.74

Quick check: percent inhibition of viability of O=C1c2c(O)ccc(O)c2C(=O)c2c(NCCNCCO)ccc(NCCNCCO)c21 [Mitoxantrone] (max concentration tested 1000 nM) ?
-16.5

Which percent inhibition of viability is listed for C1=N/C2=N/c3ccc(OCCN4CCCC4)c(c3)COC/C=C/COCc3cccc(c3)C(=C1)N2 [Pacritinib] (max concentration tested 10000 nM) ?
-4.38

Fill blank: measured percent inhibition of viability of the molecule C[C@@H](Oc1ccc2[nH]nc(/C=C/c3cnn(CCO)c3)c2c1)c1c(Cl)cncc1Cl (max concentration tested 1000 nM) is ____.
4.1

# input molecule: CO[C@@]12[C@H](COC(N)=O)C3=C(C(=O)C(C)=C(N)C3=O)N1C[C@@H]1N[C@@H]12 [Mitomycin C] (max concentration tested 10000 nM) ; wanted: its percent inhibition of viability
-6

Quick check: percent inhibition of viability of COc1ccc(COc2cc3oc(=O)c4cc(C(C)O)ccc4c3cc2OC)cc1 (stereo unspecified) [Palomid-529] (max concentration tested 10000 nM) ?
-1.34

Entry COc1ccc(-c2ccc3c(N4CCOC[C@@H]4C)nc(N4CCOC[C@@H]4C)nc3n2)cc1CO [AZD8055] (max concentration tested 10000 nM) has what percent inhibition of viability?
16.4

I have this molecule here, CCC1=C[C@@H]2CN(C1)Cc1c([nH]c3ccccc13)[C@@](C(=O)OC)(c1cc3c(cc1OC)N(C)[C@H]1[C@@](O)(C(=O)OC)[C@H](OC(C)=O)[C@]4(CC)C=CCN5CC[C@]31[C@@H]54)C2 [Vinorelbine] (max concentration tested 10000 nM) , and I need its recorded percent inhibition of viability.
-0.08

What value of measured percent inhibition of viability is listed for C[C@@H](Oc1cc(-c2cnn(C3CCNCC3)c2)cnc1N)c1c(Cl)ccc(F)c1Cl [Crizotinib] (max concentration tested 1000 nM) ?
-13.2

====

Test system: NK-YS (IL-2 2.5 ng/mL)
Protocol Description: percent inhibition of viability; higher = more inhibition
Test Settings: 72 h; 1 nM
Measurement Type: percent inhibition of viability (%)
All answers are understood in %, so give the number only.

Form entry - test system: NK-YS (IL-2 2.5 ng/mL); read-out: percent inhibition of viability; molecule: CCc1cc(Nc2nccc(-c3c(-c4ccc(OC)c(C(=O)Nc5c(F)cccc5F)c4)nc4ccccn34)n2)c(OC)cc1N1CCC(N2CCN(S(C)(=O)=O)CC2)CC1 (max concentration tested 10000 nM)
-1.69

What percent inhibition of viability appears in the records for this molecule with NK-YS (IL-2 2.5 ng/mL)? O[C@H]1CC[C@H](Nc2ncc3nc(Nc4c(F)cc(F)cc4F)n([C@H]4CCOC4)c3n2)CC1 [Tanzisertib] (max concentration tested 10000 nM)
-2.74

So what percent inhibition of viability did O=c1ncn2nc(Sc3ccc(F)cc3F)ccc2c1-c1c(Cl)cccc1Cl [VX 745] (max concentration tested 10000 nM) get with NK-YS (IL-2 2.5 ng/mL)?
-7.93

So what percent inhibition of viability did COc1ccc(-c2ccc3ncc4c(c3c2)n(-c2ccc(N3CCNCC3)c(C(F)(F)F)c2)c(=O)n4C)cn1 [NVP-BGT226] (max concentration tested 1000 nM) get with NK-YS (IL-2 2.5 ng/mL)?
-1.99

Query percent inhibition of viability on NK-YS (IL-2 2.5 ng/mL) for Cc1c(C(=O)Nc2ccc(N3C[C@@H](C)O[C@@H](C)C3)nc2)cccc1-c1ccc(OC(F)(F)F)cc1 [Sonidegib] (max concentration tested 10000 nM)
-0.38
